- experiment: chemical genetic growth profiling, strain panel (AID 1159580);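 also: tested at 20 µM; growth read once vehicle control cultures reached saturation at 30 °C; 1 = growth at the plate median or of vehicle wells; lower values mean less growth of the strain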
- assay conditions: S. cerevisiae deletion strains, growth OD, locus YBR023C, strain chs3, active compounds read low
Hit rate of the full screen: of about 5,500 compounds, about 2,000 (36%) were called active. Roughly 18% stayed inconclusive and do not appear here. Some of the results follow.
Consider the cut-off 1. If the recorded normalized growth is strictly smaller, the label is yes (1); if not, the label is no (0).

molecule	category
COC(=O)[C@]1(C)CC[C@]2(C)CC[C@]3(C)C4=CC=C5C(=CC(=O)C(O)=C5C)[C@]4(C)CC[C@@]3(C)[C@@H]2C1	yes (1)
C[C@]12CCC3C(CC[C@H]4C[C@H](OS(=O)(=O)O)CC[C@]34C)C1CCC2=O (stereo partly drawn)	no (0)
CC1=C(O)C(=O)C=C2C1=CC=C1[C@@]2(C)CC[C@@]2(C)[C@@H]3C[C@](C)(C(=O)O)CC[C@]3(C)CC[C@]12C	yes (1)

Source of measurements: PubChem BioAssay AID1159580
